Entry source: PubChem BioAssay (NCATS)

Molecular target: Cytochrome P450 2C9 (Homo sapiens)
Assay: qHTS Assay for Inhibitors and Substrates of Cytochrome P450 2C9 (AID 883); note: nearly all actives have a fitted effect of over 60% in size
Conditions: recombinant CYP2C9, luciferin-H luminescence, 60 min; series mostly up to 57.1 µM
Inconclusive results are not listed. The source made the active and inactive calls. Calls come from the whole dose curve; as a rule, active = well fitted inhibition curve with a large enough effect; inconclusive = small, poorly fitted or top-dose-only effect; inactive = no such curve, though single readings can be large or run the other way.
Can you answer with just one of these options? Yes for active, No for inactive

Some entries whose results are on file:
1. CN(CCOc1ccc(C[C@H](Nc2ccccc2C(=O)c2ccccc2)C(=O)O)cc1)c1ccccn1: Yes
2. CCNc1ncc2ncc(=O)n(C3CC3)c2n1: No

Status in this test for `COC(=O)N1CCC[C@@]2(CCN(c3ccncc3)C2)C1` ? No

Status in this test for `Cn1c(=O)c(-c2ccc(Cl)cc2)nc2cnc(N3CCOCC3)nc21` ? No

Status in this test for `O=c1c(-c2ccccc2)nc2cnc(N3CCNCC3)nc2n1C1CC1` ? Yes

Status in this test for `O=c1c(-c2cc(F)cc(F)c2)nc2cnc(N3CCNCC3)nc2n1C1CC1` ? Yes

Status in this test for `CN(C)c1ncc2ncc(=O)n(CCc3ccccc3)c2n1` ? Yes

Status in this test for `CS(=O)(=O)N1CCC2(CCN(c3ccccc3)CC2)CC1` ? No

Status in this test for `CCNc1ncc2nc(C)c(=O)n(-c3ccc(OC)cc3)c2n1` ? No

Status in this test for `CS(=O)(=O)Nc1cccc(-c2cncnc2NCc2cccs2)c1` ? Yes

Status in this test for `COc1ccc(-c2nc3cnc(N4CCOCC4)nc3n(C[C@H]3CCCO3)c2=O)cc1` ? No

* * *

Target: Lysosomal acid glucosylceramidase (Homo sapiens) (UniProt P04062)
Sequence (P04062 whole entry, looked up): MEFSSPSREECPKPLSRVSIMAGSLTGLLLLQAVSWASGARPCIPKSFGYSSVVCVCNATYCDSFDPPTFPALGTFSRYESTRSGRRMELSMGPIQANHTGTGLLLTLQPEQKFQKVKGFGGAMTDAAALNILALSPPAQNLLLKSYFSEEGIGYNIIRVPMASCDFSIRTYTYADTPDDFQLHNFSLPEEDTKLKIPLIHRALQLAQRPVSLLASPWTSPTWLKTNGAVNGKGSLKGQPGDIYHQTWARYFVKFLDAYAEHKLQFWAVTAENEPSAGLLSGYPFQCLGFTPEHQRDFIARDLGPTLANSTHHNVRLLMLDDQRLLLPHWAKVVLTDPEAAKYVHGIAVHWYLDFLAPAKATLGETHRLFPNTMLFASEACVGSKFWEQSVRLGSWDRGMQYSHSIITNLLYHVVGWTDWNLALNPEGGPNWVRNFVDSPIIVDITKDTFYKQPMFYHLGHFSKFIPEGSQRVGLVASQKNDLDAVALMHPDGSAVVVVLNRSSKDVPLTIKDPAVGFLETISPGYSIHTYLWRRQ
Test: Glucocerebrosidase-p2 (AID 348); note: potency is the fitted concentration of half-maximal effect
Settings: purified GBA, blue fluorogenic substrate, 40 min
Calls of active or inactive are those of the source. Rule as the data show it: active = potency below about 10 µM; inactive = the rest.
property: Potency

Answered cases to consult:
1. O=c1c(-c2ccc(F)cc2)nc2cnc(Oc3cccc(Cl)c3)nc2n1C1CC1: > 11.4 µM (inactive)
2. FC(F)(F)c1ccccc1-c1ccc2ncnc(NCc3cccnc3)c2c1: > 11.4 µM (inactive)
3. O=c1c(-c2cc(F)cc(F)c2)nc2cnc(N3CCNCC3)nc2n1-c1ccccc1: > 11.4 µM (inactive)
4. Cc1ccccc1-c1nc(N2CCNCC2)c2ccccc2n1: > 11.4 µM (inactive)

Potency lookup needed for `CN1CCN(c2ncc3nc(-c4cccs4)c(=O)n(-c4ccccc4)c3n2)CC1` , thanks. > 11.4 µM (inactive)

* * *

Assay: Inflammasome Signaling qHTS Counterscreen: IL-1-beta AlphaLISA counterscreen against the NCATS CANVASS Library (AID 1347381);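 note: cell-free check with purified IL-1β in medium and no THP-1 cells; 0% is about no effect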
Conditions: Purified IL-1beta AlphaLISA signal interference counterscreen; series mostly up to 57.5 µM
Calls of active or inactive are those of the source. The call rests on the fitted dose curve; in most records, active means well fitted curve in the direction sought with a large enough effect; inconclusive means small, poorly fitted or top-dose-only effect, or another doubt; inactive means no such curve, though single readings can be large or run the other way.
property: activity change, negative = inhibition

1. Cc1cc(O)cc2c1C(=O)c1c(O)cc(O)cc1C2=O: inactive
2. C/C=C(/C)c1c(Cl)c(OC)c(C)c2c1Oc1c(Cl)c(O)c(Cl)c(C)c1C(=O)O2: inactive
3. CC[C@H]1[C@@H](C)[C@@H](c2cc(OC)c(OC)cc2OC)[C@H](C)[C@@H](c2cc(OC)c(OC)cc2OC)[C@@]12C=C(OC)C(=O)C=C2OC: inactive

* * *

Experiment: qHTS Assay for Lipid Storage Modulators (AID 1519); note: % is set by controls: 0 for no effect and ±100 for the full control effect
Conditions: Drosophila S3 cells, BODIPY lipid droplet/cell ratio, laser cytometry; at 57.5 µM (top of the series); cells loaded with oleic acid
Records with an inconclusive call do not appear.
property: activity change, negative = inhibition (%)
All answers are understood in %, so give the number only.

Answered cases to consult:
1) COC(=O)N1CCC2(CC1)CN(c1ccccn1)C2: 1.4
2) Cn1c(=O)c(-c2cc(F)cc(F)c2)nc2cnc(N3CCOCC3)nc21: 4.75
3) COCC(=O)N1CCC2(CC1)CCN(C(=O)Nc1ccc(OC)cc1)CC2: 4.36
4) O=C(c1cnccn1)N1CCC2(CCCN(c3ccccc3)C2)CC1: 4.73
5) CC(=O)NCCNc1nc(-c2cccnc2)nc2ccccc12: 5.64

activity change, negative = inhibition lookup needed for `Cn1cccc1C(=O)N1CCC2(CC1)CCN(c1ccccc1)CC2` , thanks. 5.03

activity change, negative = inhibition lookup needed for `COc1ccc(-n2c(=O)c(C)nc3cnc(OC)nc32)cc1` , thanks. 4.38

activity change, negative = inhibition lookup needed for `COc1ccc(-n2c(=O)c(-c3cc(F)cc(F)c3)nc3cnc(N(C)C)nc32)cc1` , thanks. 5.64

activity change, negative = inhibition lookup needed for `COC(=O)N1CCC2(CCCN(c3ccc(-c4ccccc4)cc3)C2)CC1` , thanks. -29.2

activity change, negative = inhibition lookup needed for `CNc1ncncc1-c1c(C)noc1C` , thanks. 7.32

activity change, negative = inhibition lookup needed for `Cc1noc(C)c1-c1cc(NC2CCNCC2)ncn1` , thanks. 3.45

activity change, negative = inhibition lookup needed for `CCNc1ncc2ncc(=O)n(CCOC)c2n1` , thanks. 6.16
